Source: PubChem BioAssay AID485314

- SYSTEM: DNA polymerase beta (Homo sapiens) (UniProt P06746)
- ASSAY PROCEDURE: qHTS Assay for Inhibitors of DNA Polymerase Beta
- CONDITION DESCRIPTION: Pol beta primer extension/strand displacement, fluorescence kinetic; series mostly up to 114 µM
In all, about 340,000 compounds went through this assay and about 4,500 (1.3%) were called active. Not shown: some 5% with an inconclusive outcome. The call rests on the fitted dose curve; in most records, active means well fitted inhibition curve with a large enough effect; inconclusive means small, poorly fitted or top-dose-only effect, or another doubt; inactive means no such curve, though single readings can be large or run the other way. This is one part of a sample in which actives are shown more often than they occur.
Outcomes: active, inactive

                                   compound                                    system     class
0  CCOC(=O)c1ccc(N2C(=O)c3n[nH]c(C)c3C2c2ccc(O)c(OC)c2)cc1 (stereo not given)  DNA polymerase beta (Homo sapiens) (UniProt P06746)  inactive
1  CC(=O)Nc1ccc(S(=O)(=O)N2CCN(c3ccccc3)CC2)cc1  DNA polymerase beta (Homo sapiens) (UniProt P06746)  inactive
2  Cc1ccccc1OCCSc1nc2ccc(NC(=O)c3ccco3)cc2s1  DNA polymerase beta (Homo sapiens) (UniProt P06746)  inactive
3  Oc1c(C(c2ccccc2Cl)N2CCOCC2)sc2nc(-c3ccco3)nn12 (stereo not given)  DNA polymerase beta (Homo sapiens) (UniProt P06746)  inactive
4   CCOc1ccccc1/C=c1\sc2nc(-c3ccco3)nn2c1=O  DNA polymerase beta (Homo sapiens) (UniProt P06746)    active

----------
- SYSTEM: DNA polymerase beta (Homo sapiens)
- ASSAY PROCEDURE: qHTS Assay for Inhibitors of DNA Polymerase Beta
- CONDITION DESCRIPTION: Pol beta primer extension/strand displacement, fluorescence kinetic; series mostly up to 114 µM
Among all 340,000 compounds or so, about 4,500 (1.3%) were called active. Roughly 5% stayed inconclusive and do not appear here. Calls come from the whole dose curve; as a rule, active = well fitted inhibition curve with a large enough effect; inconclusive = small, poorly fitted or top-dose-only effect, or another doubt; inactive = no such curve, though single readings can be large or run the other way. This excerpt belongs to a sample that is enriched for actives.
Outcomes: active, inactive

>>> df
                                    compound     class
 0  COc1ccc(C)cc1NC(=O)C(=O)NCCc1sc(-c2cccc(C)c2)nc1C  inactive
 1  COc1cccc(CNC(=O)c2ccc3c(c2)N(Cc2ccc(C(F)(F)F)cc2)C(=O)c2ccccc2S3)c1OC  inactive
 2         Cc1cc(C)c2nc3nc(C)cc(C)c3c(N)c2c1    active
 3     Cc1ccc(OC(=O)CCC(=O)Nc2ccc(Br)cc2)cc1  inactive
 4         O=C(COC(=O)c1ccc(F)cc1F)Nc1ncccn1    active
 5  CC(=O)N1CCc2cc(Br)cc(S(=O)(=O)CCC(=O)NCCc3ccc(Cl)cc3)c21  inactive
 6  COCC(=O)N1CCCC(C(=O)c2ccc(C(F)(F)F)cc2)C1 (configuration not stated)  inactive
 7  O=C(CCS(=O)(=O)c1ccc(Br)cc1)NCCc1ccc(Cl)cc1    active
 8  CCOC(=O)c1sc2nc(CSCC(=O)OCc3ccc(C(=O)OC)o3)[nH]c(=O)c2c1C  inactive
 9  Cn1c(=O)oc2cc(S(=O)(=O)CCC(=O)NCCc3ccc(Cl)cc3)ccc21  inactive
10     COc1ccc(C(=O)CCC(=O)Nc2ccc(Cl)cc2)cc1  inactive
11  COc1ccc(-c2nc3sc(CCNC(=O)C(C)(C)C)c(C)n3n2)cc1  inactive
12  COc1cccc(C(=O)NC2=NC(c3ccc(N(C)C)cc3)CC(=O)N2)c1 (configuration not stated)  inactive
13    COc1ccc(Cl)cc1NC(=O)CCC(=O)c1ccc(C)cc1  inactive
14  CCOc1ccc(OCC)c(NC(=O)CCS(=O)(=O)c2ccc(C)cc2)c1  inactive
15  CCOC(=O)c1c(C)oc2nc(C)nc(N(CC(C)C)CC(C)C)c12  inactive
16  Cc1ccc(C)c(NC(=O)CSC2=Nc3ccccc3N=C(c3ccc(F)cc3)C2)c1  inactive
17  O=C(N/N=C/c1ccc(OC(=O)c2ccccc2Cl)cc1)c1ccc(O)cc1  inactive
18  Cc1nc2ccc(C(=O)N/N=C/c3ccc(O)cc3)cc2[nH]1    active
19      Cc1cccc(C2=N/C(=C/c3cccs3)C(=O)O2)c1  inactive
20   CN1C/C(=C/c2cccs2)C(=O)/C(=C\c2cccs2)C1  inactive
21  Cc1cccc(N2CCN(S(=O)(=O)c3ccc4[nH]c5c(c4c3)CCCCC5)CC2)c1C  inactive
